- System: HT-29
- protocol notes: NCI tumour cell line growth inhibition, 48 h
The source made the active and inactive calls. Rule as the data show it: active = GI50 up to about 1.1 µM and inactive = higher.
Give one outcome, nothing more. List: t = active, f = inactive

Past entries and their recorded results:
molecule: O=C1c2c(nc3ccccc3c2-c2ccccc2)CN1Nc1ccccn1
class label: f
//
molecule: O=c1cc(NNc2cccc3ccccc23)[nH]c(=O)[nH]1
class label: f
//
molecule: CCOC(=O)C1CCC(=O)N1C(=O)c1cccc(Cl)c1 (stereo not drawn)
class label: f
//
molecule: N#CCCN(CCC#N)c1ccc(/C=C2\N=C(c3cc([N+](=O)[O-])ccc3Cl)OC2=O)cc1
class label: f
//
molecule: CC(C)(C)OC(=O)NC(Cc1ccc(OCc2ccccc2)cn1)C(=O)N1CCCCC1 (stereo not drawn)
class label: f
//
molecule: [N-]=[N+]=C(C(=O)C(=[N+]=[N-])C(=O)c1ccccc1)C(=O)c1ccccc1
class label: f

Status in this test for CCOc1ccccc1/N=N/c1ccc2oc(=O)c(C(C)=O)cc2c1 ?
f

Entry COC(=O)c1c(O)ccc2c1c1c(n2-c2ccc(OC)cc2)C(=O)c2ccccc2C1=O : call = ?
f

Given CC(=O)OCC12CN(C#N)C3C4COC(CC41)C1(C(=O)N(C)c4ccccc41)C32 (stereo not drawn) , state the outcome it received in this test.
f

Outcome logged for COc1ccc2nc3ccccc3c(NCCCCCCN(CCCl)CCCl)c2c1 in this assay:
t

Per the assay record, what outcome was assigned to [O-][Cl+3]([O-])([O-])[O-].c1ccc(-c2[o+]c(-c3ccccc3)c(-c3ccccc3)c(-c3ccccc3)c2-c2ccccc2)cc1 ?
f

Test call for this molecule, please: CN(C)CCCNc1ccnc2cccc([N+](=O)[O-])c12
f

Record lookup: outcome of this test for CCOC(=O)C1=CC(C)(C(=O)OCC)Nc2c(nc(N)[nH]c2=O)N1 (stereo not drawn) ?
f

The measurements presented in this section are drawn from ChEMBL document CHEMBL1201862.
